B1: MED27 (parent)
chain: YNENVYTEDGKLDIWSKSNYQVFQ

# Variants of: B1
# assay.name: protein stability index of a GFP-peptide fusion (GPS, HEK-293T) (PSI 1-6); higher = more stable;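 note: lentivirally expressed fusions sorted by FACS into six bins by GFP to DsRed ratio, PSI derived from sequencing read proportions per bin multiplied by bin number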
# experimental.conditions: c terminus: a fixed tail appended
protein stability index of 2 or higher: Fulfilled. Under 2: Not fulfilled.

1) YNENVYTLDGKLDIWSKSNYQVFQ [E8L]	Not fulfilled
2) YNENVYTEDGKSDIWSKSNYQVFQ [L12S]	Fulfilled
3) YNENVYTEDGKLLIWSKSNYQVFQ [D13L]	Not fulfilled
4) YNENVYGEDGKLDIWSKSNYQVFQ [T7G]	Fulfilled
5) YNENVYTEDGKLDIWSKSNYQVFF [Q24F]	Not fulfilled
6) YNENVCTEDGKLDIWSKSNYQVFQ [Y6C]	Fulfilled
7) YNENVYTEDGKLDIWSKSNYQVKQ [F23K]	Fulfilled
8) YNECVYTEDGKLDIWSKSNYQVFQ [N4C]	Fulfilled
9) YNENVYTEDGKLDIWSTSNYQVFQ [K17T]	Not fulfilled
10) YNENVYTEDGKLDIMSKSNYQVFQ [W15M]	Fulfilled
11) YNQNVYTEDGKLDIWSKSNYQVFQ [E3Q]	Fulfilled
12) YNENVYTEDGKLDLWSKSNYQVFQ [I14L]	Fulfilled
13) YNENVYTEDGKLDHWSKSNYQVFQ [I14H]	Fulfilled
